Where do these numbers come from? They come from ChEMBL document CHEMBL1154972.

target: Orexin receptor type 2 (Homo sapiens); experiment: Antagonist activity at human OX2 receptor expressed in CHO cells assessed as inhibition of calcium mobilization by FLIPR assay
Sequence (O43614 whole entry): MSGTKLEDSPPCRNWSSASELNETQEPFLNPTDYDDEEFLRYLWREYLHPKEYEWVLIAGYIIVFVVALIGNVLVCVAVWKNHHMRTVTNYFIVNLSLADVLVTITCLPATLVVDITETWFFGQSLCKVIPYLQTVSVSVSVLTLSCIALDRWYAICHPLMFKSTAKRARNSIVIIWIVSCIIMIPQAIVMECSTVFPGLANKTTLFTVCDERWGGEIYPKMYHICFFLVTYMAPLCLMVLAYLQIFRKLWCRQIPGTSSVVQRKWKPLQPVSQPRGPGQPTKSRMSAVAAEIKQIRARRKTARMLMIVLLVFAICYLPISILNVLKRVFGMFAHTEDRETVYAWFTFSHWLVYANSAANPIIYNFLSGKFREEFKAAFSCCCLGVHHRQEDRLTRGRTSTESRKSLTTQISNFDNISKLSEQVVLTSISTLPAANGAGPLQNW
Would you kindly list IC50 for each of these compounds?
One number for each entry, in µM.

Example entries begin here.
compound="CCn1nc(C)c2c1CCN(C(C(=O)NC)c1ccccc1)C2CCc1cccc(C(F)(F)F)c1 (mixture of isomers)" assay_system="Orexin receptor type 2 (Homo sapiens)" experimental_endpoint=IC50 unit_name=µM obs_value=0.007
compound=CCn1nc(C)c2c1CCN([C@@H](C(=O)NC)c1ccccc1)[C@H]2CCc1ccc(C(C)C)cc1 assay_system="Orexin receptor type 2 (Homo sapiens)" experimental_endpoint=IC50 unit_name=µM obs_value=0.009
compound="CCn1nc(C)c2c1CCN(C(C(=O)NC)c1ccccc1)C2CCc1ccc(OC)cc1 (mixture of isomers)" assay_system="Orexin receptor type 2 (Homo sapiens)" experimental_endpoint=IC50 unit_name=µM obs_value=0.219

# ---- query compound ----
Could you share which IC50 value was measured for CCn1nc(C)c2c1CCN(C(C(=O)NC)c1ccccc1)C2CCc1ccc(Cl)cc1 (mixture of isomers) ?
0.012
